Every entry's value here was drawn from ChEMBL document CHEMBL1146205.

Biological target: Caspase-6 (Homo sapiens)
Sequence (P55212 whole entry): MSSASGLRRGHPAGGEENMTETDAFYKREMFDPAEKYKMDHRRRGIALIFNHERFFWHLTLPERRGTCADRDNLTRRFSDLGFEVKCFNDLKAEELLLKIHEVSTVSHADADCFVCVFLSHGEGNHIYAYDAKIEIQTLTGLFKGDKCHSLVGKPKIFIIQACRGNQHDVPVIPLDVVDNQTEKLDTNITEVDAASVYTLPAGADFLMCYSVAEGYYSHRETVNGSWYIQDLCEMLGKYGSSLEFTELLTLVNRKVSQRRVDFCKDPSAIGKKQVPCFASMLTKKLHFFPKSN
Assay: Inhibition of human recombinant caspase 6
This section presents molecules with their documented pIC50 values.
API: returns pIC50 as number; meaning -log10 of concentration in mol/L.

| Item smiles | pIC50 |
| --- | --- |
| N#CC(C#N)=C1C(=O)N(Cc2ccc(Br)cc2)c2ccc(S(=O)(=O)N3CCC[C@H]3COc3cccnc3)cc21 | 6.29 |
| N#CC(C#N)=C1C(=O)N(Cc2ccccc2)c2ccc(S(=O)(=O)N3CCC[C@H]3COc3cccnc3)cc21 | 6.08 |
| O=C1C(=O)N(Cc2ccc(Br)cc2)c2ccc(S(=O)(=O)N3CCC[C@H]3COc3ccccc3)cc21 | 5.05 |
| N#CC(C#N)=C1C(=O)N(Cc2ccc(O)cc2)c2ccc(S(=O)(=O)N3CCC[C@H]3COc3ccccc3)cc21 | 6.13 |
| O=C1C(=O)N(Cc2ccc(O)cc2)c2ccc(S(=O)(=O)N3CCC[C@H]3COc3cccnc3)cc21 | 5.02 |
| O=C1C(=O)N(Cc2ccc(Br)cc2)c2ccc(S(=O)(=O)N3CCC[C@H]3COc3cccnc3)cc21 | 5.30 |

Given the entry N#CC(C#N)=C1C(=O)N(Cc2ccccc2)c2ccc(S(=O)(=O)N3CCC[C@H]3COc3ccccc3)cc21 , what pIC50 was observed with Caspase-6 (Homo sapiens)?
6.04

Given the entry COc1ccc(CN2C(=O)C(=C(C#N)C#N)c3cc(S(=O)(=O)N4CCC[C@H]4COc4cccnc4)ccc32)cc1 , what pIC50 was observed with Caspase-6 (Homo sapiens)?
6.21

Given the entry N#CC(C#N)=C1C(=O)N(Cc2ccc(Br)cc2)c2ccc(S(=O)(=O)N3CCC[C@H]3COc3ccccc3)cc21 , what pIC50 was observed with Caspase-6 (Homo sapiens)?
6.08

Given the entry N#CC(C#N)=C1C(=O)N(Cc2ccc(O)cc2)c2ccc(S(=O)(=O)N3CCC[C@H]3COc3cccnc3)cc21 , what pIC50 was observed with Caspase-6 (Homo sapiens)?
6.19
